Source: ChEMBL document CHEMBL5150062

- EXPERIMENT SUMMARY: Aqueous solubility of the compound in pH 7.4 PBS measured after 7 hrs by HPLC-UV analysis
- Assay type: physicochemical
- ASSAY CONTEXT: PBS, pH 7.4

LINE NOTATION: CC(C)CNc1nc(Nc2ccc(S(=O)(=O)N3CCN(C)CC3)cc2)nc2ccccc12
solubility at 7 h (µg/mL): 3
//
LINE NOTATION: CCCNc1nc(Nc2ccc(S(=O)(=O)N3CCN(C)CC3)cc2)nc2ccccc12
solubility at 7 h (µg/mL): 0.1
//
LINE NOTATION: CC(C)CNc1nc(Nc2cccc(S(=O)(=O)N3CCN(C)CC3)c2)nc2ccccc12
solubility at 7 h (µg/mL): 0.6
//
LINE NOTATION: NS(=O)(=O)c1cccc(Nc2nc(NC3CCN(Cc4ccccc4)CC3)c3ccccc3n2)c1
solubility at 7 h (µg/mL): 4.2
//
LINE NOTATION: NS(=O)(=O)c1cccc(Nc2nc(NCc3ccccc3)c3ccccc3n2)c1
solubility at 7 h (µg/mL): 2.1
//
LINE NOTATION: CC(C)N1CCC(Nc2nc(Nc3cccc(S(=O)(=O)N4CCN(C)CC4)c3)nc3ccccc23)CC1
solubility at 7 h (µg/mL): 1770
//
LINE NOTATION: NS(=O)(=O)c1cccc(Nc2nc(NC3CCN(Cc4ccccc4)CC3)c3nc[nH]c3n2)c1
solubility at 7 h (µg/mL): 150

====

- STUDY SYSTEM: cGMP-specific 3',5'-cyclic phosphodiesterase (Homo sapiens)
- EXPERIMENT SUMMARY: Inhibition of human PDE5 using [3H]cGMP as substrate at 1 uM incubated for 10 mins by liquid scintillation counter analysis relative to control
Recorded measurements of inhibition, one per entry

LINE NOTATION: COc1cc2nc(Nc3cccc(S(=O)(=O)N4CCN(C)CC4)c3)nc(NC3CCN(C(C)C)CC3)c2cc1OC
inhibition / %: 18.5

LINE NOTATION: NS(=O)(=O)c1cccc(Nc2nc(NC3CCN(Cc4ccccc4)CC3)c3ccccc3n2)c1
inhibition / %: 93.4

LINE NOTATION: NS(=O)(=O)c1cccc(Nc2nc(NCc3ccccc3)c3ccccc3n2)c1
inhibition / %: 101

LINE NOTATION: CC(C)N1CCC(Nc2nc(Nc3cccc(S(N)(=O)=O)c3)nc3ccccc23)CC1
inhibition / %: 96.3

LINE NOTATION: CCCNc1nc(Nc2ccc(S(=O)(=O)N3CCN(C)CC3)cc2)nc2ccccc12
inhibition / %: 95.6

LINE NOTATION: CN(C)CCNc1nc(Nc2cccc(S(N)(=O)=O)c2)nc2ccccc12
inhibition / %: 72.2

LINE NOTATION: CC(C)N1CCC(Nc2nc(Nc3cccc(S(N)(=O)=O)c3)nc3[nH]cnc23)CC1
inhibition / %: 32.7

LINE NOTATION: COc1cc2nc(Nc3cccc(S(N)(=O)=O)c3)nc(NCC(C)C)c2cc1OC
inhibition / %: 94.9

LINE NOTATION: COc1cc2nc(Nc3ccc(S(N)(=O)=O)cc3)nc(NCC(C)C)c2cc1OC
inhibition / %: 94.6

LINE NOTATION: COc1cc2nc(Nc3cccc(S(N)(=O)=O)c3)nc(NC3CCN(C(C)C)CC3)c2cc1OC
inhibition / %: 79.3

LINE NOTATION: CCCNc1nc(Nc2cccc(S(N)(=O)=O)c2)nc2cc(OC)c(OC)cc12
inhibition / %: 91.6

LINE NOTATION: CN1CCN(S(=O)(=O)c2ccc(Nc3nc(NCc4ccccc4)c4ccccc4n3)cc2)CC1
inhibition / %: 96.5

LINE NOTATION: CC(C)CNc1nc(Nc2ccc(S(=O)(=O)N3CCN(C)CC3)cc2)nc2c1ncn2C
inhibition / %: 96

LINE NOTATION: Cn1cnc2c(NCc3ccccc3)nc(Nc3cccc(S(N)(=O)=O)c3)nc21
inhibition / %: 86.1

LINE NOTATION: CC(C)CNc1nc(Nc2ccc(S(=O)(=O)N3CCN(C)CC3)cc2)nc2ccccc12
inhibition / %: 99

LINE NOTATION: CCCNc1nc(Nc2cccc(S(=O)(=O)N3CCN(C)CC3)c2)nc2c1ncn2C
inhibition / %: 93.6

LINE NOTATION: CC(C)N1CCC(Nc2nc(Nc3cccc(S(=O)(=O)N4CCN(C)CC4)c3)nc3ccccc23)CC1
inhibition / %: 93.6

LINE NOTATION: CN1CCN(S(=O)(=O)c2cccc(Nc3nc(NCc4ccccc4)c4ccccc4n3)c2)CC1
inhibition / %: 98.3

LINE NOTATION: CN(C)CCNc1nc(Nc2cccc(S(=O)(=O)N3CCN(C)CC3)c2)nc2ccccc12
inhibition / %: 75.3

LINE NOTATION: CCCNc1nc(Nc2ccc(S(=O)(=O)N3CCN(C)CC3)cc2)nc2c1ncn2C
inhibition / %: 93.6
